# LD50 per entry
# procedure_summary: Walker carcinosarcoma 256 tumour growth inhibition in rats
# Assay type: in vivo, Sprague-Dawley rats
# stated_conditions: rat, in vivo, po, daily p.o. for 5 days, dose causing 50 percent lethality
readout_type: LD50 (mg/kg)

1. CC(=O)[C@@]1(OC(=O)CCCOC(=O)Cc2ccc(N(CCCl)CCCl)cc2)CC[C@H]2[C@@H]3CCC4=CC(=O)CC[C@]4(C)[C@H]3CC[C@@]21C :: 80
2. CC(=O)[C@@]1(OC(=O)CCCOC(=O)CCCc2ccc(N(CCCl)CCCl)cc2)CC[C@H]2[C@@H]3CCC4=CC(=O)CC[C@]4(C)[C@H]3CC[C@@]21C :: 40

These data points were gathered from patent US4177269A.
